- target_or_system: KRAS (G12D)::SOS1 (Homo sapiens (Human), UniProt P01116, G12D)
- Sequence (P01116 other isoform, or with tags, fused parts or gaps G12D): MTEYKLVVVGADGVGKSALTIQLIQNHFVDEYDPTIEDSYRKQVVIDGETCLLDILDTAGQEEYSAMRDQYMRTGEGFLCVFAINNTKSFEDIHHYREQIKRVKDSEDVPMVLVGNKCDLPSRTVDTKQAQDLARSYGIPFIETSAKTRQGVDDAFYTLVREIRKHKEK
- assay_comment: KRAS::SOS1 AlphaScreen binding assay, KRAS G12D
endpoint: IC50 (nM)
Only the number, expressed in nM, is required.

                                   molecule  assay_result
0  C[C@H](Oc1cc(N2CCN(C)C3(CC3)C2)nc(-c2noc3c2CCC[C@@]32CCCc3sc(N)c(C#N)c32)n1)[C@@H]1C[C@@H](F)CN1C             1
1  CO[C@H]1CCN(C)[C@@H]1[C@H](C)Oc1cc(N2CCN(C)C3(CC3)C2)nc(-c2noc3c2CCC[C@@]32CCCc3sc(N)c(C#N)c32)n1             1
2  C[C@H](Oc1cc(-c2ccn(CC(C)(C)O)n2)nc(-c2onc3c2CCC[C@@]32CCCc3sc(N)c(C#N)c32)n1)[C@@H]1CCCN1C             3
3  CO[C@H]1CCN(C)[C@@H]1[C@H](C)Oc1cc(-n2ccc(C(=O)N[C@@H](C)c3ccccn3)n2)nc(-c2noc3c2CCC[C@@]32CCCc3sc(N)c(C#N)c32)n1             1
4  C[C@H](Oc1cc(N2Cc3cnn(C)c3C2)nc(-c2noc3c2CCC[C@@]32CCCc3sc(N)c(C#N)c32)n1)[C@@H]1CCCN1C            12

Recorded result, `C[C@H](Oc1cc(N2CCNC(C)(C)C2)nc(-c2noc3c2CCC[C@@]32CCCc3sc(N)c(C#N)c32)n1)[C@@H]1CCCN1C` , IC50: 1

For `C[C@H](Oc1cc(-c2cnsc2)nc(-c2noc3c2CCC[C@@]32CCCc3sc(N)c(C#N)c32)n1)[C@@H]1CCCN1C` the molecule record lists IC50 as 3

So, `CO[C@@H]1C[C@@H]([C@H](C)Oc2cc(-c3cnn(C)n3)nc(-c3noc4c3CCC[C@@]43CCCc4sc(N)c(C#N)c43)n2)N(C)C1` ? Its IC50 was 7

Record summary for `C[C@H](Oc1cc(-n2ccc(-c3cn([C@H]4CCOC4)nn3)n2)nc(-c2noc3c2CCC[C@@]32CCCc3sc(N)c(C#N)c32)n1)[C@@H]1CCCN1C` : reported IC50 = 1

Documented IC50 of `C[C@H]1CN(C)CCCN1c1nc(-c2noc3c2CCC[C@@]32CCCc3sc(N)c(C#N)c32)cc(N2CCN(C)C3(CC3)C2)n1` : 36
